Lab note: Ki readings collected with Apoptosis regulator Bcl-2 (Homo sapiens) for the following molecules.
Sequence (P10415 whole entry): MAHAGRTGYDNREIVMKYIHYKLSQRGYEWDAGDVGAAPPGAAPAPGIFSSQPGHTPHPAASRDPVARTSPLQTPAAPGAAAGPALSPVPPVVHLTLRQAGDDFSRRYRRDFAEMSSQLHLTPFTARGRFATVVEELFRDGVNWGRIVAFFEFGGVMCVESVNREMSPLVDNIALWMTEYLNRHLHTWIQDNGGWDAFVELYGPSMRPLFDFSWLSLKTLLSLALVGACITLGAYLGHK

Some entries whose results are on file:
CN(C)CC[C@H](CSc1ccccc1)Nc1ccc(S(=O)(=O)NC(=O)c2ccc(N3CCC(=Cc4ccccc4-c4ccccc4)CC3)cc2)cc1[N+](=O)[O-] :: < 1 nM
CN(C)CC[C@H](CSc1ccccc1)Nc1ccc(S(=O)(=O)NC(=O)c2ccc(N3CCN(Cc4ccccc4N4CCOCC4)CC3)cc2)cc1[N+](=O)[O-] :: < 1 nM

Attention now shifts to the item below.
Apoptosis regulator Bcl-2 (Homo sapiens) Ki of COc1ccc(-c2ccccc2CN2CCN(c3ccc(C(=O)NS(=O)(=O)c4ccc(N[C@H](CCN(C)C)CSc5ccccc5)c([N+](=O)[O-])c4)cc3)CC2)cc1 is < 1 nM
